- System Tested: Integrin alpha-4/beta-1 (Homo sapiens, UniProt P05556+P13612)
- Sequence (P05556 whole entry): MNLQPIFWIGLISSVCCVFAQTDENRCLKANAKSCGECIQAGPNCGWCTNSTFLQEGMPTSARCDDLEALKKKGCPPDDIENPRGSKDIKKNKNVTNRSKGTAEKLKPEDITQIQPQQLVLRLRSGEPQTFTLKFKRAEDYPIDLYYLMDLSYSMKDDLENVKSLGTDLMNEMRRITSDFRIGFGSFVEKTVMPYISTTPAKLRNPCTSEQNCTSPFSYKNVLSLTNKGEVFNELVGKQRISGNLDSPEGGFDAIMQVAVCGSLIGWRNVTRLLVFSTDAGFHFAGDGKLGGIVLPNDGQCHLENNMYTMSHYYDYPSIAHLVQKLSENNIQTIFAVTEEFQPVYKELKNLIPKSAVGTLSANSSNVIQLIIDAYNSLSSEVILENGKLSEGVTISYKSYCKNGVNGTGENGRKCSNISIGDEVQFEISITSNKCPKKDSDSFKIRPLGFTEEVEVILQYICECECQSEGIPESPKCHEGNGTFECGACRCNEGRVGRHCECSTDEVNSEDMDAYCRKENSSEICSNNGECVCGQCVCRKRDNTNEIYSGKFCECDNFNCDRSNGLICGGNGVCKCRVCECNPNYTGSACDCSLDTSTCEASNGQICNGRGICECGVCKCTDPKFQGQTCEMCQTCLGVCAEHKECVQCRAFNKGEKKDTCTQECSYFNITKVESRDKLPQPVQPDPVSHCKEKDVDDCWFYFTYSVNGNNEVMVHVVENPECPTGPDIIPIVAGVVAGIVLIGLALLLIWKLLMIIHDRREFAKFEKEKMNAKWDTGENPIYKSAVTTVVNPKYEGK
- Sequence (P13612 whole entry): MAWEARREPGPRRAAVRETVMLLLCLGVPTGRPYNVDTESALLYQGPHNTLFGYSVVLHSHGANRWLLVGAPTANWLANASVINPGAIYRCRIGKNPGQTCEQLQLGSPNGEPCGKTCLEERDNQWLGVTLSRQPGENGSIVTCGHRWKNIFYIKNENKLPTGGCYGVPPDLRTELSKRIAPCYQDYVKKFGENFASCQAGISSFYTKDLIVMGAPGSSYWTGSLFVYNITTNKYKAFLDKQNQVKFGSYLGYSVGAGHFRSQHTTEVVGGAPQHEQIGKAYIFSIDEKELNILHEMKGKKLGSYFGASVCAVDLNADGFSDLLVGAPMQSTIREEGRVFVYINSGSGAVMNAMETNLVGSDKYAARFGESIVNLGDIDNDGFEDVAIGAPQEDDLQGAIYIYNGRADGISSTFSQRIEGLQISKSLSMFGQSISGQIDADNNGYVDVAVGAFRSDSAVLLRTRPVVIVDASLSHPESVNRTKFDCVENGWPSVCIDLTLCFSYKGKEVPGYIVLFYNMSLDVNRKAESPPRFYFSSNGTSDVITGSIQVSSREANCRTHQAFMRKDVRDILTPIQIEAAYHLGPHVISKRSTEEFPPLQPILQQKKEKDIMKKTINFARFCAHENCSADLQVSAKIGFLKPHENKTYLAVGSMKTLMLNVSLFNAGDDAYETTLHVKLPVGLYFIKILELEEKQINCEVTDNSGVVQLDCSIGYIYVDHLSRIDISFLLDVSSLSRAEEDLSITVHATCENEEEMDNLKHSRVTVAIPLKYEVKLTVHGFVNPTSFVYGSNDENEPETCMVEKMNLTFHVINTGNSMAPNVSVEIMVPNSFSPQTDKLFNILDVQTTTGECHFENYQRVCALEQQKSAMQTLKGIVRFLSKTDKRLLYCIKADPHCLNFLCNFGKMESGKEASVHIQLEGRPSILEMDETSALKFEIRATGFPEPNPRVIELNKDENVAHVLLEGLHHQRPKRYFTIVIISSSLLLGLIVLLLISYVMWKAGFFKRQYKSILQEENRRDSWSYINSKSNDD
- Procedure Details: Inhibition of recombinant human Integrin alpha4beta1 using TMB as substrate incubated for 2 hrs in presence of VCAM-1 by ELISA
- Assay type: protein-complex assay
Assay Readout: IC50 (µM)

Field: example entries. Status: answers known.
Exercise: What IC50 value was documented for this compound, `Cc1ccc(Cl)c(C(=O)N[C@@H](CNC(=O)Cn2c(=O)[nH]c3ncccc32)C(=O)O)c1F` ?
Solution: 1.58

Exercise: What IC50 value was documented for this compound, O=C(CCCCc1ccc2c(n1)NCCC2)NCC(NC(=O)c1c(Cl)cccc1Cl)C(=O)O (racemic) ?
Solution: 3.16

Exercise: What IC50 value was documented for this compound, `Cc1cc(C#N)cc(C)c1C(=O)N[C@@H](CNC(=O)Cn1c(=O)[nH]c2ncccc21)C(=O)O` ?
Solution: 5.01

[I] COc1cc(F)c(C(=O)N[C@@H](CNC(=O)Cn2c(=O)[nH]c3ncccc32)C(=O)O)c(Cl)c1
[II] O=C(Cn1c(=O)[nH]c2ncccc21)NC[C@H](NC(=O)c1c(F)cccc1Cl)C(=O)O
Exercise: Min IC50? I | II Let me know the label of the one you choose.
Solution: II
(II: 2.51 µM, I: 5.01 µM)

[a] O=C(NC(CNc1ccc(N2CCNC2=O)cc1)C(=O)O)c1c(Cl)cccc1Cl (racemic)
[b] COc1ccc(Cl)c(C(=O)N[C@@H](CNC(=O)Cn2c(=O)[nH]c3ncccc32)C(=O)O)c1F
Exercise: Larger number for IC50: a , or b ? Let me know the label of the one you choose.
Solution: b
(b: 1.58 µM, a: 0.2 µM)

[P] O=C(Cn1c(=O)[nH]c2ncccc21)NC[C@H](NC(=O)c1ccccc1Cl)C(=O)O
[Q] O=C(Cn1c(=O)[nH]c2ccccc21)NC[C@H](NC(=O)c1c(Cl)cccc1Cl)C(=O)O
Exercise: Larger number for IC50: P , or Q ? Let me know the label of the one you choose.
Solution: P
(P: 3.16 µM, Q: 2 µM)

---

- System Tested: Integrin alpha-V/beta-6 (Homo sapiens, UniProt P06756+P18564)
- Procedure Details: Inhibition of recombinant human Integrin alphaVbeta6 using TMB as substrate incubated for 2 hrs in presence of LAP by ELISA
- Assay type: protein-complex assay
Assay Readout: IC50

Exercise: # get_value(readout= IC50, system= Integrin alpha-V/beta-6 (Homo sapiens, UniProt P06756+P18564)) for `O=C(Cn1c(=O)[nH]c2ncccc21)NC[C@H](NC(=O)c1c(Cl)cccc1Cl)C(=O)O`
Solution: > 10 µM

Exercise: # get_value(readout= IC50, system= Integrin alpha-V/beta-6 (Homo sapiens, UniProt P06756+P18564)) for O=C(CCCCc1ccc2c(n1)NCCC2)NCC(NC(=O)c1c(Cl)cccc1Cl)C(=O)O (racemic)
Solution: < 0.000158 µM

Exercise: # get_value(readout= IC50, system= Integrin alpha-V/beta-6 (Homo sapiens, UniProt P06756+P18564)) for `O=C(Cn1c(=O)[nH]c2ncccc21)NC[C@H](NC(=O)c1c(F)cc(-c2ccccc2)cc1Cl)C(=O)O`
Solution: > 10 µM

Exercise: # get_value(readout= IC50, system= Integrin alpha-V/beta-6 (Homo sapiens, UniProt P06756+P18564)) for `O=C(Cn1c(=O)[nH]c2ncccc21)NC[C@H](NC(=O)c1c(F)cccc1Cl)C(=O)O`
Solution: > 10 µM

---

- System Tested: Integrin alpha-V/beta-1 (Homo sapiens, UniProt P05556+P06756)
- Sequence (P05556 21-798 limits assumed): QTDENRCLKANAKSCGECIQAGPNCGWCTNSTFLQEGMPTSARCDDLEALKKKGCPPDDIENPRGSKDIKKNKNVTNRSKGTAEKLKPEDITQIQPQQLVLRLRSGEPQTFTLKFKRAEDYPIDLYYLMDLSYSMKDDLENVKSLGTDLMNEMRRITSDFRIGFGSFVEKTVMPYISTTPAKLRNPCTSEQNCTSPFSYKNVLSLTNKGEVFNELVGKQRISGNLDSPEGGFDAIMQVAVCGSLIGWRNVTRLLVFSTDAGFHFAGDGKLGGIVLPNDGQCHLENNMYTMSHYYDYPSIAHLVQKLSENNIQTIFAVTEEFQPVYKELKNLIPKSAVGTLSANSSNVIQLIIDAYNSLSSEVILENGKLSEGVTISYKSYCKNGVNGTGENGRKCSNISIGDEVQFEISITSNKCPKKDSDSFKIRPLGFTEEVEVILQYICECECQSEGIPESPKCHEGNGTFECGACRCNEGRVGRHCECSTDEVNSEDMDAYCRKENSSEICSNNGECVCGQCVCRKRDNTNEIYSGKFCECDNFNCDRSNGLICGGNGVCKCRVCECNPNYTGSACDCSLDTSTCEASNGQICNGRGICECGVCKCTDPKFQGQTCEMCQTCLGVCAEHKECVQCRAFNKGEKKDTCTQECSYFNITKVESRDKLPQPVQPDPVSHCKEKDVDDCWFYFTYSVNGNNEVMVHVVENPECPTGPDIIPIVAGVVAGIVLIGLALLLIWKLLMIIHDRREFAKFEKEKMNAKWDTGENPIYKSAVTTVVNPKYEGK
- Sequence (P06756 31-889 limits assumed): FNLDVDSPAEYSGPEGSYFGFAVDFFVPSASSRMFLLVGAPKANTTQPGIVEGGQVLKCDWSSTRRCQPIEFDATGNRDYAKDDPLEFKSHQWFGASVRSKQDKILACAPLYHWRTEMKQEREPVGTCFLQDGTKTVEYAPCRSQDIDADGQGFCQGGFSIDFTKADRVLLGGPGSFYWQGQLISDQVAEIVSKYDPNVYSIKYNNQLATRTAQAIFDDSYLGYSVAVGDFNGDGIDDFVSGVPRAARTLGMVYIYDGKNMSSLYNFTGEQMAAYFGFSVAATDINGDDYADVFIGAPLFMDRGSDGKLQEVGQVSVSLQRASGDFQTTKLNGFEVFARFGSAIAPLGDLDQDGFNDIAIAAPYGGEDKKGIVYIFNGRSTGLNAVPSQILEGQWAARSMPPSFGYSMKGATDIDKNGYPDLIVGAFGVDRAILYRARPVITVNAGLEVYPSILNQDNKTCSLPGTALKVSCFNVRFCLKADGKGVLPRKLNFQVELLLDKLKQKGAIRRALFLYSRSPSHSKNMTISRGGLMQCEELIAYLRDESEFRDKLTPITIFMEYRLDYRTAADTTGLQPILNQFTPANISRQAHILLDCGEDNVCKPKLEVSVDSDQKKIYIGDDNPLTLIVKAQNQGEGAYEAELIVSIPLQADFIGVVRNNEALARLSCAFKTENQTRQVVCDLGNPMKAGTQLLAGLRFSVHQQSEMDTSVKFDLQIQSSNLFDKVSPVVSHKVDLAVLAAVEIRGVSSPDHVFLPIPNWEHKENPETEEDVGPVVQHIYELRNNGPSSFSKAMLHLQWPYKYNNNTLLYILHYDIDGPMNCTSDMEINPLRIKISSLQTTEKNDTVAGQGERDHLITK
- Sequence (P06756 891-1048 limits assumed): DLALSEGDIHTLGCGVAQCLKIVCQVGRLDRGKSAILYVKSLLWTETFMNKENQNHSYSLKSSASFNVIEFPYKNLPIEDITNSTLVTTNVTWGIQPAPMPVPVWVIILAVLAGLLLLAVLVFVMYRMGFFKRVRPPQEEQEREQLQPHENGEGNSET
- Procedure Details: Inhibition of recombinant human Integrin alphaVbeta1 mediated cellular adhesion expressed in CHO-B2 cell incubated for 24 hrs in presence of Ca2+ and Mg2+ by real-time cell analysis
- Assay type: cell-based
Assay Readout: IC50 (nM)

[a] Cc1ccc(Cl)c(C(=O)N[C@@H](CNC(=O)Cn2c(=O)[nH]c3nc(C)c(F)cc32)C(=O)O)c1F
[b] N=C(N)NCCCCC(=O)Nc1ccc(C[C@H](NC(=O)[C@@H]2CCCN2S(=O)(=O)c2ccccc2)C(=O)O)cc1
Exercise: Larger number for IC50: a , or b ? Let me know the label of the one you choose.
Solution: a
(a: 427 nM, b: 12.6 nM)

---

Measured pIC50 by item
- System Tested: Integrin alpha-V/beta-8 (Homo sapiens, UniProt P06756+P26012)
- Sequence (P06756 31-889 limits assumed): as the sequence (P06756 31-889 limits assumed) above
- Sequence (P06756 891-1048 limits assumed): as the sequence (P06756 891-1048 limits assumed) above
- Sequence (P26012 43-769 limits assumed): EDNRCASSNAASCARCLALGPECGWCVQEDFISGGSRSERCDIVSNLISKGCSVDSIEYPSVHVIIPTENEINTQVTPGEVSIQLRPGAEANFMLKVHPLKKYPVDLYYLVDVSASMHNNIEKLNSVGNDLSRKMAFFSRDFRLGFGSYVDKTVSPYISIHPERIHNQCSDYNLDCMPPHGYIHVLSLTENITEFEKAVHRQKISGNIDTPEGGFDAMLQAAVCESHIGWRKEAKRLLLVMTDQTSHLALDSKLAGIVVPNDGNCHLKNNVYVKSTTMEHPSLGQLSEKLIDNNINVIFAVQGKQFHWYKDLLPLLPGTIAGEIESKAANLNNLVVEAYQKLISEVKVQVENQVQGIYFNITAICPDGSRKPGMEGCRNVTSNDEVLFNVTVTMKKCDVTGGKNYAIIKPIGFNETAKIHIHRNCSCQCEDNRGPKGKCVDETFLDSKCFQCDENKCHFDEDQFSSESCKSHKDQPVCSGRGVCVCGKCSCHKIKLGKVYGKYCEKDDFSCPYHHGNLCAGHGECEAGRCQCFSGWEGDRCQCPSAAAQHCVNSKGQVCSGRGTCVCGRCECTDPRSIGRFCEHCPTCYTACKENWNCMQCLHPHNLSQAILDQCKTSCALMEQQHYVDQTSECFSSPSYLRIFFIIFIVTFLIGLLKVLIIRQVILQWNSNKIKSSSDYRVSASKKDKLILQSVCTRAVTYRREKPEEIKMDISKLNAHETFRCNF
- Procedure Details: Inhibition of recombinant human Integrin alphaVbeta8 using TMB as substrate incubated for 2 hrs in presence of LAP by ELISA
- Type: protein-complex assay
pIC50: −log10 of the molar value.

Exercise: What pIC50 value was documented for this compound, `O=C(Cn1c(=O)[nH]c2ccccc21)NC[C@H](NC(=O)c1c(Cl)cccc1Cl)C(=O)O` ?
Solution: < 5.00

Exercise: What pIC50 value was documented for this compound, `Cc1cc(C#N)cc(C)c1C(=O)N[C@@H](CNC(=O)Cn1c(=O)[nH]c2ncccc21)C(=O)O` ?
Solution: < 5.00

Exercise: What pIC50 value was documented for this compound, O=C(NC(Cc1ccccc1)C(=O)O)c1ccc(Cl)cc1Cl (stereo unspecified) ?
Solution: < 4.50

***
Exercise: What pIC50 value was documented for this compound, O=C(NC(CNc1ccccc1)C(=O)O)c1c(Cl)cccc1Cl (stereo unspecified) ?
Solution: < 5.00

Exercise: What pIC50 value was documented for this compound, O=C(CCCCc1ccc2c(n1)NCCC2)NCC(NC(=O)c1c(Cl)cccc1Cl)C(=O)O (racemic) ?
Solution: > 9.80

Exercise: What pIC50 value was documented for this compound, `O=C(Cn1c(=O)[nH]c2ncccc21)NC[C@H](NC(=O)c1ccccc1Cl)C(=O)O` ?
Solution: < 5.00

---

Measured pIC50 by item
- System Tested: Integrin alpha-V/beta-6 (Homo sapiens, UniProt P06756+P18564)
- Procedure Details: Inhibition of recombinant human Integrin alphaVbeta6 using TMB as substrate incubated for 2 hrs in presence of LAP by ELISA
- Assay type: protein-complex assay
pIC50: −log10 of the molar value.

Field: example entries. Status: answers known.
Exercise: What pIC50 value was documented for this molecule, O=C(NC(CNc1ccccc1)C(=O)O)c1c(Cl)cccc1Cl (stereo not given) ?
Solution: < 5.00

Exercise: What pIC50 value was documented for this molecule, `Cc1cc(C#N)cc(C)c1C(=O)N[C@@H](CNC(=O)Cn1c(=O)[nH]c2ncccc21)C(=O)O` ?
Solution: < 5.00

Exercise: What pIC50 value was documented for this molecule, O=C(NC(Cc1ccccc1)C(=O)O)c1ccc(Cl)cc1Cl (stereo not given) ?
Solution: < 4.50

Exercise: What pIC50 value was documented for this molecule, O=C(NC(CNc1ccc(N2CCNC2=O)cc1)C(=O)O)c1c(Cl)cccc1Cl (racemic) ?
Solution: < 5.00

***
Exercise: What pIC50 value was documented for this molecule, `O=C(Cn1c(=O)[nH]c2ccccc21)NC[C@H](NC(=O)c1c(Cl)cccc1Cl)C(=O)O` ?
Solution: < 5.00

---

- System Tested: Integrin alpha-V/beta-1 (Homo sapiens, UniProt P05556+P06756)
- Procedure Details: Inhibition of recombinant human Integrin alphaVbeta1 using TMB as substrate incubated for 2 hrs in presence of fibronectin by ELISA
- Type: protein-complex assay
pIC50: −log10 of the molar value.
Assay Readout: pIC50

Field: example entries. Status: answers known.
Exercise: What pIC50 value was documented for this compound, `Cc1cnc2[nH]c(=O)n(CC(=O)NC[C@H](NC(=O)c3c(Cl)ccc(C)c3F)C(=O)O)c2c1` ?
Solution: 7.10

Exercise: What pIC50 value was documented for this compound, O=C(NC(CNc1ccccc1)C(=O)O)c1c(Cl)cccc1Cl (stereo not given) ?
Solution: 6.70

Exercise: What pIC50 value was documented for this compound, `Cc1ccc(Cl)c(C(=O)N[C@@H](CNC(=O)Cn2c(=O)[nH]c3ncncc32)C(=O)O)c1F` ?
Solution: 9.20

Exercise: What pIC50 value was documented for this compound, O=C(NC(Cc1ccccc1)C(=O)O)c1ccc(Cl)cc1Cl (stereo not given) ?
Solution: 5.30

Exercise: What pIC50 value was documented for this compound, `Cc1ccc(Cl)c(C(=O)N[C@@H](CNC(=O)Cn2c(=O)[nH]c3ncccc32)C(=O)O)c1F` ?
Solution: 9.20

[P] COc1ccc(Cl)c(C(=O)N[C@@H](CNC(=O)Cn2c(=O)[nH]c3ncccc32)C(=O)O)c1F
[Q] O=C(CN1Cc2ccccc2NC1=O)NC[C@H](NC(=O)c1ccccc1Cl)C(=O)O
Exercise: Min pIC50? P | Q Let me know the label of the one you choose.
Solution: Q

---

- System Tested: Integrin alpha-V/beta-1 (Homo sapiens, UniProt P05556+P06756)
- Procedure Details: Inhibition of recombinant human Integrin alphaVbeta1 using TMB as substrate incubated for 2 hrs in presence of fibronectin by ELISA
- Format: protein-complex assay
pIC50: −log10 of the molar value.
Measured pIC50 by item

Field: example entries. Status: answers known.
Exercise: What pIC50 value was documented for this compound, `Cc1nc2ccccc2n1CC(=O)NC[C@H](NC(=O)c1ccccc1Cl)C(=O)O` ?
Solution: < 5.00

Exercise: What pIC50 value was documented for this compound, `O=C(CN1C(=O)Cc2ccccc21)NC[C@H](NC(=O)c1ccccc1Cl)C(=O)O` ?
Solution: < 5.00

Proceed to the following item.
Exercise: What pIC50 value was documented for this compound, `O=C(Cn1cnc2ccccc21)NC[C@H](NC(=O)c1ccccc1Cl)C(=O)O` ?
Solution: < 5.00
